# method_notes: qHTS assay to identify small molecule agonists of the RXR signaling pathway - cell viability counter screen (AID 1159529); also: nearly all actives have a fitted effect of over 50% in size
# experimental_conditions: RXR-alpha-bla HEK293T viability, CellTiter-Glo, 16 h; series mostly up to 76.8 µM
Inconclusive results are not listed. Calls of active or inactive are those of the source. Calls follow the shape of the dose curve; as a rule, active = well fitted cell-killing curve with a large enough effect in the repeat runs; inconclusive = weak or mixed curves, or effect the other way; inactive = no such curve, though single readings can be large or run the other way.
Permitted responses: class 1 (active), class 0 (inactive)

Look over these answered cases.
>>> cat("CC(C)(C)c1ccc(C(=O)CCCN2CCC(OC(c3ccccc3)c3ccccc3)CC2)cc1")
"class 1"
>>> cat("CC[C@H]1O[C@]2(CC[C@@H]1C)C[C@@H]1C[C@@H](C/C=C(\\C)C[C@@H](C)/C=C/C=C3\\CO[C@@H]4[C@H](O)C(C)=C[C@@H](C(=O)O1)[C@]34O)O2")
"class 1"
>>> cat("Clc1ccccc1C(c1ccccc1)(c1ccccc1)n1ccnc1")
"class 1"
>>> cat("CCCC/C=C/CCCCO")
"class 0"

Q: Called result for `OCCN1CCN(CC/C=C2/c3ccccc3Sc3ccc(C(F)(F)F)cc32)CC1`
A: class 1

Q: Then what about the molecule `O=S1(=O)CC(Cl)(Cl)C(Cl)(Cl)C1` ?
A: class 1

Q: Then what about the molecule O=C(OCC1CO1)C1CCCCC1C(=O)OCC1CO1 (stereo unspecified) ?
A: class 0

Q: Then what about the molecule `Cc1cc(O)c(C(C)(C)C)cc1C(C)(C)C` ?
A: class 1

Q: Then what about the molecule `CCCCCCCCCCn1cc[n+](CCCCCCCCCC)c1C` ?
A: class 1

Q: Then what about the molecule `CO[Si](CCCNc1ccccc1)(OC)OC` ?
A: class 0

Q: Then what about the molecule `NC(=O)CC[C@@H]1NC(=O)[C@H](Cc2ccccc2)NC(=O)[C@H](Cc2ccc(O)cc2)NC(=O)CCSSC[C@@H](C(=O)N2CCC[C@H]2C(=O)N[C@@H](CCCN=C(N)N)C(=O)NCC(N)=O)NC(=O)[C@H](CC(N)=O)NC1=O` ?
A: class 0

Q: Then what about the molecule `CC[C@@]1(O)C(=O)OCc2c1cc1n(c2=O)Cc2c-1nc1ccccc1c2/C=N/OC(C)(C)C` ?
A: class 1

Q: Then what about the molecule `Nc1ccccc1O` ?
A: class 0

Q: Then what about the molecule CCC(C)(C)C1CCCCC1OC(C)=O (stereo unspecified) ?
A: class 0

Q: Then what about the molecule `Oc1cccc(-c2c3nc(c(-c4cccc(O)c4)c4ccc([nH]4)c(-c4cccc(O)c4)c4nc(c(-c5cccc(O)c5)c5ccc2[nH]5)CC4)C=C3)c1` ?
A: class 1

Q: Then what about the molecule Cc1nc(-c2ccc3c(c2)CCN(CCC2CCC(NC(=O)/C=C/c4ccc(F)cc4)CC2)CC3)no1 (stereo unspecified) ?
A: class 0

Q: Then what about the molecule `Cc1cc2c(cc1C(F)(F)F)N(C(=O)Nc1ccc(Oc3cccnc3C)nc1)CC2` ?
A: class 0

Q: Then what about the molecule CC1=NC(C)OC1C (stereo unspecified) ?
A: class 0

Q: Then what about the molecule `CCOC(=O)O[C@H](C)OC(=O)c1ccc2c(c1)cc(C(=O)NC1CCN(C(C)C)CC1)n2Cc1cc(-c2ccc(Cl)s2)on1` ?
A: class 1

Q: Then what about the molecule `COc1cc(-c2ccc(N=C=O)c(OC)c2)ccc1N=C=O` ?
A: class 0
